Reported values: ΔTm for Activin receptor type-1 (Homo sapiens), Q04771 [Q207D], one per item.

# smiles.repr, unit.name, ΔTm
rows = [
    ("COc1cc(-c2cc(-c3ccc(N4CCNCC4)cc3)cnc2N)cc(OC)c1OC", "°C", 15.1),
    ("COc1cc(-c2cc(-c3ccc(N4CCNCC4)cc3)cnc2C)cc(OC)c1OC", "°C", 13.7),
    ("COc1cc(-c2cc(-c3cccc(O)c3)cnc2N)cc(OC)c1OC", "°C", 13.2),
    ("COc1cc(-c2cncc(-c3ccc(N4CCNCC4)cc3)c2)cc(OC)c1OC", "°C", 14.1),
]
